biological target: human FXR (NR1H4) (Homo sapiens (Human), UniProt Q96RI1); test: Human FXR (NR1H4) Assay (Gal4 promoter driven luciferase reporter, Indigo Bioscience kit IB00601); assay type: cell-based; details: efficacy normalized to CDCA set as 100%
Sequence (Q96RI1 whole entry, the tested form may be a part): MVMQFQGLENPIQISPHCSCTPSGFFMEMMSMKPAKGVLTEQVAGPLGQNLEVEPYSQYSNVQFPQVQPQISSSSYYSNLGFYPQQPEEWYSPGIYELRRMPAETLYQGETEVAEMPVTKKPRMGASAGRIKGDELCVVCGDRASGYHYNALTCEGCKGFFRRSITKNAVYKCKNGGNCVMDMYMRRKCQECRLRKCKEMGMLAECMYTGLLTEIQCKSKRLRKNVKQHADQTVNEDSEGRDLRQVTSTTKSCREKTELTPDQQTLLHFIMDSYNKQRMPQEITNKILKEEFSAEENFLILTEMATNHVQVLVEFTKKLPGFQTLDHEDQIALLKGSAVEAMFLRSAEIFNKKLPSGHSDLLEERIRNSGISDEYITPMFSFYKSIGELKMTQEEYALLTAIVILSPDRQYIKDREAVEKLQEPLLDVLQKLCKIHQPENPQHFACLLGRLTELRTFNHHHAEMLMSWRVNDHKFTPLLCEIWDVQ
For each of the compounds below, state its Efficacy (%).
Number in %, nothing else.

The recorded Efficacy (%) for entry CC[C@H]1[C@@H](O)[C@@H]2[C@H](CC[C@]3(C)[C@@H]([C@H](C)CCNC(=O)NS(=O)(=O)N4C(C)CCC4C)CC[C@@H]23)[C@@]2(C)CC[C@@H](O)C[C@@H]12 (some centres unmarked) equals 344

The recorded Efficacy (%) for entry `CC[C@H]1[C@@H](O)[C@@H]2[C@H](CC[C@]3(C)[C@@H]([C@H](C)CCNC(=O)NS(=O)(=O)C4(C)CC4)CC[C@@H]23)[C@@]2(C)CC[C@@H](O)C[C@@H]12` equals 315

The recorded Efficacy (%) for entry `CC[C@H]1[C@@H](O)[C@@H]2[C@H](CC[C@]3(C)[C@@H]([C@H](C)CCNC(=O)NS(=O)(=O)c4c(F)c(F)c(F)c(F)c4F)CC[C@@H]23)[C@@]2(C)CC[C@@H](O)C[C@@H]12` equals 325

The recorded Efficacy (%) for entry `CC[C@H]1[C@@H](O)[C@@H]2[C@H](CC[C@]3(C)[C@@H]([C@H](C)CCNC(=O)NS(=O)(=O)c4ccc(-c5cnc(C)o5)cc4C)CC[C@@H]23)[C@@]2(C)CC[C@@H](O)C[C@@H]12` equals 249

The recorded Efficacy (%) for entry `CC[C@H]1[C@@H](O)[C@@H]2[C@H](CC[C@]3(C)[C@@H]([C@H](C)CCNC(=O)NS(=O)(=O)N4C[C@@H](C)O[C@H](C)C4)CC[C@@H]23)[C@@]2(C)CC[C@@H](O)C[C@@H]12` equals 321

The recorded Efficacy (%) for entry `CC[C@H]1[C@@H](O)[C@@H]2[C@H](CC[C@]3(C)[C@@H]([C@H](C)CCNC(=O)NS(=O)(=O)N4CC(F)(F)C(F)(F)C4)CC[C@@H]23)[C@@]2(C)CC[C@@H](O)C[C@@H]12` equals 315

The recorded Efficacy (%) for entry `CC[C@H]1[C@@H](O)[C@@H]2[C@H](CC[C@]3(C)[C@@H]([C@H](C)CCNC(=O)NS(=O)(=O)N4CCN(C(C)(C)C)CC4)CC[C@@H]23)[C@@]2(C)CC[C@@H](O)C[C@@H]12` equals 351

The recorded Efficacy (%) for entry `C[C@H](CCNC(=O)NS(=O)(=O)c1ccc(C(C)(C)C)cc1)[C@H]1CC[C@H]2[C@@H]3[C@H](O)C[C@@H]4C[C@H](O)CC[C@]4(C)[C@H]3CC[C@]12C` equals 320

The recorded Efficacy (%) for entry `CC[C@H]1[C@@H](O)[C@@H]2[C@H](CC[C@]3(C)[C@@H]([C@H](C)CCNC(=O)NS(=O)(=O)C(C)(C)CO)CC[C@@H]23)[C@@]2(C)CC[C@@H](O)C[C@@H]12` equals 121

The recorded Efficacy (%) for entry `CC[C@H]1[C@@H](O)[C@@H]2[C@H](CC[C@]3(C)[C@@H]([C@H](C)CCNC(=O)NS(N)(=O)=O)CC[C@@H]23)[C@@]2(C)CC[C@@H](O)C[C@@H]12` equals 195

The recorded Efficacy (%) for entry `CC[C@H]1[C@@H](O)[C@@H]2[C@H](CC[C@]3(C)[C@@H]([C@H](C)CCNS(=O)(=O)O)CC[C@@H]23)[C@@]2(C)CC[C@@H](O)C[C@@H]12` equals 8

The recorded Efficacy (%) for entry `CC[C@H]1[C@@H](O)[C@@H]2[C@H](CC[C@]3(C)[C@@H]([C@H](C)CCNC(=O)NS(=O)(=O)N(C)C)CC[C@@H]23)[C@@]2(C)CC[C@@H](O)C[C@@H]12` equals 399

The recorded Efficacy (%) for entry `CC[C@H]1[C@@H](O)[C@@H]2[C@H](CC[C@]3(C)[C@@H]([C@H](C)CCNC(=O)NS(=O)(=O)c4ccc(C(C)(C)C(=O)OC)cc4)CC[C@@H]23)[C@@]2(C)CC[C@@H](O)C[C@@H]12` equals 434

The recorded Efficacy (%) for entry `CC[C@H]1[C@@H](O)[C@@H]2[C@H](CC[C@]3(C)[C@@H]([C@H](C)CCNC(=O)NS(=O)(=O)c4ccc5c(c4)CCCC5)CC[C@@H]23)[C@@]2(C)CC[C@@H](O)C[C@@H]12` equals 297

The recorded Efficacy (%) for entry `CC[C@H]1[C@@H](O)[C@@H]2[C@H](CC[C@]3(C)[C@@H]([C@H](C)CCNC(=O)NS(=O)(=O)c4ccc5c(c4)CCN5C(C)=O)CC[C@@H]23)[C@@]2(C)CC[C@@H](O)C[C@@H]12` equals 476

The recorded Efficacy (%) for entry `CC[C@H]1[C@@H](O)[C@@H]2[C@H](CC[C@]3(C)[C@@H]([C@H](C)CCNC(=O)NS(=O)(=O)N4CCC5(CC4)CC5)CC[C@@H]23)[C@@]2(C)CC[C@@H](O)C[C@@H]12` equals 390

The recorded Efficacy (%) for entry `CC[C@H]1[C@@H](O)[C@@H]2[C@H](CC[C@]3(C)[C@@H]([C@H](C)CCCNS(=O)(=O)[O-])CC[C@@H]23)[C@@]2(C)CC[C@@H](O)C[C@@H]12.[Na+]` equals 4
